Target: human GLP-1 (Homo sapiens)
Assay: h-GLP-1 activity assay (Cisbio cAMP Gs dynamic kit, HTRF)
Details: HEK293 cells with stable expression of human GLP-1, relative EC50, 10 nM human GLP-1 = 100% response
pEC50: −log10 of the molar value.
Can you tell me pEC50 for the items I'm about to list?

// query pEC50 value for entry C[C@]1(c2ccc(Cl)cn2)Oc2cccc(C3=CC[C@@H](Cc4nc5ccc(C(=O)O)cc5n4Cc4cscn4)OC3)c2O1 (single isomer, unassigned)
< 7.00

// query pEC50 value for entry C[C@]1(c2ccc(Cl)cc2F)Oc2cccc(C3=CC[C@@H](Cc4nc5ccc(C(=O)O)nc5n4C[C@@H]4CCO4)OC3)c2O1 (single isomer, unassigned)
> 7.70

// query pEC50 value for entry C[C@]1(c2ccc(Cl)cn2)Oc2cccc(C3=CC[C@H](Cc4nc5ccc(C(=O)O)cc5n4Cc4cscn4)OC3)c2O1 (single isomer, unassigned)
7.00 to 7.70

// query pEC50 value for entry C[C@]1(c2ccc(Cl)cn2)Oc2cccc(-c3ccc(Cc4nc5ccc(C(=O)O)cc5n4C[C@@H]4CCO4)cc3)c2O1 (single isomer, unassigned)
> 7.70

// query pEC50 value for entry N#Cc1ccc(COc2cccc([C@@H]3CC[C@H](Cc4nc5ccc(C(=O)O)cc5n4C[C@@H]4CCO4)OC3)n2)c(F)c1 (single isomer, unassigned)
> 7.70

---

Target: human GLP-1 (Homo sapiens, UniProt P43220)
Sequence (P43220 24-463): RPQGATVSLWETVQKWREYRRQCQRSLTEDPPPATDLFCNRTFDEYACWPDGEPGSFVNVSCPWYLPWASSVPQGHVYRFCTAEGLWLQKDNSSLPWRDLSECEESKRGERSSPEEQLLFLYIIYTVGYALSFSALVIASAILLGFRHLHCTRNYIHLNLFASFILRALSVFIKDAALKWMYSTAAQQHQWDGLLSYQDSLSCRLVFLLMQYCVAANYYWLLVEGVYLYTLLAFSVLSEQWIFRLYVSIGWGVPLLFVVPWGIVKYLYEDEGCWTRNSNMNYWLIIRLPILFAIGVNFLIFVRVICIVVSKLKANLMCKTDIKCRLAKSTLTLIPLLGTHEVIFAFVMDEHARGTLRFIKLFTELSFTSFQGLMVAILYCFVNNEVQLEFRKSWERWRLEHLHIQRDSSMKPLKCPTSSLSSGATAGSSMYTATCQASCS
Assay: h-GLP-1 activity assay (Cisbio cAMP Gs dynamic kit, HTRF)
Conditions: HEK293 cells with stable expression of human GLP-1, relative EC50, 10 nM human GLP-1 = 100% response
Description: Human GLP-1 agonizing activity was detected in HEK293 cells with stable expression of human GLP-1 by Cisbio cAMP Gs dynamic kit (Catalog #62AM4PEC) according to manufacturer's protocol. Briefly, cells were collected and resuspended in assay buffer containing 0.1% BSA and 0.5 mM of IBMX at concentration to 2.5×10^5 cells/mL. […] HTRF signals were read at 665 and 615 nm with EnVision plate reader and calculated cAMP concentration by intrapolation to the standard curve. […]
Can you tell me EC50 for the items I'm about to list?

// query EC50 value for entry CC1(c2ccc(Cl)cc2F)Oc2cccc(C3CC4(C3)CN(Cc3nc5ccc(C(=O)O)cc5n3C[C@@H]3CCO3)C4)c2O1 (mixture of isomers) [Compound 23]
> 0.1 µM

// query EC50 value for entry C[C@@]1(c2ccc(Cl)cn2)Oc2cccc([C@@H]3CC[C@H](Cc4nc5ccc(C(=O)O)cc5n4C[C@@H]4CCO4)OC3)c2O1 (single isomer, unassigned) [Compound 103]
0.02 to 0.1 µM

// query EC50 value for entry C[C@]1(c2ccc(Cl)cn2)Oc2cccc(C3=CC[C@@H](Cc4nc5ccc(C(=O)O)cc5n4Cc4cncs4)OC3)c2O1 (single isomer, unassigned) [Compound 113]
0.02 to 0.1 µM

---

Target: human GLP-1 (Homo sapiens)
Experiment: h-GLP-1 activity assay (Cisbio cAMP Gs dynamic kit, HTRF)
Conditions: HEK293 cells with stable expression of human GLP-1, relative EC50, 10 nM human GLP-1 = 100% response
measure.name: EC50

// query EC50 value for entry CC1(c2ccc(C(F)(F)F)cc2F)Oc2cccc(-c3ccc(Cc4nc5ccc(C(=O)O)cc5n4C[C@@H]4CCO4)cc3)c2O1 (mixture of isomers)
< 20 nM

// query EC50 value for entry CCC1(c2ccc(Cl)cc2F)Oc2cccc(-c3ccc(Cc4nc5ccc(C(=O)O)cc5n4C[C@@H]4CCO4)cc3)c2O1 (mixture of isomers)
> 100 nM

// query EC50 value for entry C[C@@]1(c2ccc(Cl)cn2)Oc2cccc(C3C4CN(Cc5nc6ccc(C(=O)O)cc6n5C[C@@H]5CCO5)CC43)c2O1 (single isomer, unassigned)
20 to 100 nM

// query EC50 value for entry O=C(O)c1ccc2nc(CN3CCC(c4cccc5c4OC(c4ccc(Cl)cc4F)C(=O)N5)CC3)n(C[C@@H]3CCO3)c2c1 (mixture of isomers)
20 to 100 nM

// query EC50 value for entry C[C@]1(c2ccc(C(F)(F)F)cn2)Oc2cccc(C3=CCC(Cc4nc5c(F)cc(C(=O)O)cc5n4C[C@@H]4CCO4)OC3)c2O1 (single isomer, unassigned)
> 100 nM

// query EC50 value for entry CC1(c2c(F)cc(Cl)cc2F)Oc2cccc(C3=CCC(Cc4nc5ccc(C(=O)O)cc5n4C[C@@H]4CCO4)OC3)c2O1 (mixture of isomers)
< 20 nM

// query EC50 value for entry C[C@]1(c2ccc(Cl)cn2)Oc2cccc(C3=CC[C@H](Cc4nc5c(F)cc(C(=O)O)cc5n4C[C@@H]4CCO4)OC3)c2O1 (single isomer, unassigned)
< 20 nM

// query EC50 value for entry C[C@]1(c2ccc(Cl)cc2F)Oc2cccc(C3=CC[C@@H](Cc4nc5c(F)cc(C(=O)O)cc5n4C[C@@H]4CCO4)OC3)c2O1 (single isomer, unassigned)
< 20 nM

// query EC50 value for entry C[C@@]1(c2ccc(Cl)cn2)Oc2cccc([C@H]3CC[C@@H](Cc4nc5ccc(C(=O)O)cc5n4C[C@@H]4CCO4)OC3)c2O1 (single isomer, unassigned)
> 100 nM

// query EC50 value for entry O=C(O)c1ccc2nc(C[C@@H]3CC[C@@H](c4cccc(OCc5ccc(Cl)cc5F)n4)CO3)n(Cc3cncs3)c2c1 (single isomer, unassigned)
> 100 nM

// query EC50 value for entry C[C@@]1(c2ccc(Cl)cn2)Oc2cccc(C3CC4CC3CN4Cc3nc4ccc(C(=O)O)cc4n3C[C@@H]3CCO3)c2O1 (single isomer, unassigned)
> 100 nM

// query EC50 value for entry C[C@]1(c2ccc(Cl)cc2F)Oc2cccc(-c3ccc(Cc4nc5ccc(C(=O)O)cc5n4C[C@@H]4CCO4)cc3)c2O1 (single isomer, unassigned)
< 20 nM

// query EC50 value for entry C[C@@]1(c2ccc(C(F)(F)F)cn2)Oc2cccc(C3=CCC(Cc4nc5ccc(C(=O)O)cc5n4C[C@@H]4CCO4)OC3)c2O1 (single isomer, unassigned)
< 20 nM

// query EC50 value for entry O=C(O)c1ccc2nc(CC3CC(c4cccc(OCc5ccc(Cl)cc5F)n4)CO3)n(C[C@@H]3CCO3)c2c1 (mixture of isomers)
> 100 nM

// query EC50 value for entry C[C@@]1(c2ccc(Cl)cc2F)Oc2cccc(-c3ccc(Cc4nc5ccc(C(=O)O)cc5n4C[C@@H]4CCO4)nc3)c2O1 (single isomer, unassigned)
> 100 nM

// query EC50 value for entry C[C@]1(c2ccc(Cl)cn2)Oc2cccc(C3=CC[C@@H](Cc4nc5c(F)cc(C(=O)O)cc5n4Cc4cscn4)OC3)c2O1 (single isomer, unassigned)
> 100 nM

// query EC50 value for entry Cc1cc(Cc2nc3ccc(C(=O)O)cc3n2C[C@@H]2CCO2)ccc1-c1cccc2c1OC(C)(c1ccc(Cl)cc1F)O2 (mixture of isomers)
< 20 nM

// query EC50 value for entry C[C@@]1(c2ccc(Cl)cn2)Oc2cccc(-c3ccc(Cc4nc5ccc(C(=O)O)cc5n4C[C@@H]4CCO4)cc3)c2O1 (single isomer, unassigned)
> 100 nM

// query EC50 value for entry C[C@@]1(c2ccc(Cl)cn2)Oc2cccc(C3=CC[C@@H](Cc4nc5ccc(C(=O)O)cc5n4C[C@@H]4CCO4)OC3)c2O1 (single isomer, unassigned)
> 100 nM

// query EC50 value for entry O=C(O)c1ccc2nc(CN3CCC(c4cccc5c4CC(c4ccc(Cl)cn4)O5)CC3)n(C[C@@H]3CCO3)c2c1 (mixture of isomers)
> 100 nM

// query EC50 value for entry C[C@@]1(c2ccc(Cl)cn2)Oc2cccc(C34CCN(Cc5nc6ccc(C(=O)O)cc6n5C[C@@H]5CCO5)CC3C4)c2O1 (single isomer, unassigned)
< 20 nM

// query EC50 value for entry C[C@@]1(c2ccc(Cl)cc2F)Oc2cccc(-c3ccc(Cc4nc5ccc(C(=O)O)cc5n4C[C@@H]4CCO4)cc3)c2O1 (single isomer, unassigned)
> 100 nM

---

Molecular target: human GLP-1 (Homo sapiens, UniProt P43220)
Assay: h-GLP-1 activity assay (Cisbio cAMP Gs dynamic kit, HTRF)
Settings: HEK293 cells with stable expression of human GLP-1, relative EC50, 10 nM human GLP-1 = 100% response
Protocol: Human GLP-1 agonizing activity was detected in HEK293 cells with stable expression of human GLP-1 by Cisbio cAMP Gs dynamic kit (Catalog #62AM4PEC) according to manufacturer's protocol. Briefly, cells were collected and resuspended in assay buffer containing 0.1% BSA and 0.5 mM of IBMX at concentration to 2.5×10^5 cells/mL. […] HTRF signals were read at 665 and 615 nm with EnVision plate reader and calculated cAMP concentration by intrapolation to the standard curve. […]
Can you tell me EC50 for the items I'm about to list?

Could you share what EC50 was measured for C[C@]1(c2ccc(Cl)cc2F)Oc2cccc(-c3ccc(Cc4nc5ccc(C(=O)O)cc5n4C[C@@H]4CCO4)nc3)c2O1 (single isomer, unassigned) [Compound 18] , tested on human GLP-1 (Homo sapiens, UniProt P43220)?
< 20 nM

Could you share what EC50 was measured for CC1(c2ccc(Cl)cc2F)Oc2cccc(C3CCC(Cc4nc5ccc(C(=O)O)cc5n4C[C@@H]4CCO4)OC3)c2O1 (mixture of isomers) [Compound 56] , tested on human GLP-1 (Homo sapiens, UniProt P43220)?
< 20 nM

Could you share what EC50 was measured for O=C(O)c1ccc2nc(CCN3CC(c4cccc(OCc5ccc(Cl)cc5F)n4)C3)n(C[C@@H]3CCO3)c2c1 [Compound 82] , tested on human GLP-1 (Homo sapiens, UniProt P43220)?
20 to 100 nM

Could you share what EC50 was measured for C[C@@]1(c2ccc(Cl)cn2)Oc2cccc(C34COC(Cc5nc6ccc(C(=O)O)cc6n5C[C@@H]5CCO5)CC3C4)c2O1 (single isomer, unassigned) [Compound 75] , tested on human GLP-1 (Homo sapiens, UniProt P43220)?
> 100 nM

Could you share what EC50 was measured for CC1(c2ccc(Cl)cc2F)Oc2cccc(C3CCC(Cc4nc5ccc(C(=O)O)cc5n4C[C@@H]4CCO4)CO3)c2O1 (mixture of isomers) [Compound 58] , tested on human GLP-1 (Homo sapiens, UniProt P43220)?
> 100 nM

Could you share what EC50 was measured for N#Cc1ccc(COc2cccc(C34CCC(Cc5nc6ccc(C(=O)O)cc6n5C[C@@H]5CCO5)(CC3)OC4)n2)c(F)c1 [Compound 36] , tested on human GLP-1 (Homo sapiens, UniProt P43220)?
> 100 nM
